Biological target: SARS-CoV-2 3CLpro (Severe acute respiratory syndrome coronavirus 2)
Assay: biochemical
Assay type: biochemical
Design: unit not given here
Settings: sheet LOPAC_screen_w_protease; primary screen with protease, replicate 2
Consider the following compounds; for each one, report its Replicate_2.
Numbers only.

{"Compound": "CN1C(=O)CC[C@H]1c1cccnc1 [(-)-Cotinine]", "Replicate_2": 2.45}

Please state, for each entry, its recorded Replicate_2.
1. CSc1nc(N)c2ncn([C@@H]3O[C@H](COP(=O)([O-])OP(=O)([O-])OP(=O)([O-])[O-])[C@@H](O)[C@H]3O)c2n1.[Na+].[Na+].[Na+].[Na+]
2. O=c1[nH]c2cc(Cl)ccc2c(O)c1-c1cccc(Oc2ccccc2)c1
3. Cc1ccccc1N1CCN(S(=O)(=O)CC23CCC(CC2NC(=O)C(N)CCS(C)(=O)=O)C3(C)C)CC1.Cl (centres unmarked)
4. CN1CCC(c2c[nH]c3ccc(O)cc23)CC1.O=C(O)/C=C\C(=O)O [BRL 54443 maleate]

// result
1.718
2.066
2.27
4.37

====

Biological target: SARS-CoV-2 3CLpro (Severe acute respiratory syndrome coronavirus 2)
Assay: biochemical
Format: biochemical
Design: unit not given here
Where a name gives a salt, the structure may show the parent alone.
Result Type: mean

Examples from the recorded data:
{"Compound": "Cl.O=S(=O)(c1cccc2c(Cl)cccc12)N1CCCNCC1 [ML-9]", "Result": 3.1064}
{"Compound": "CN(C)CCC(c1ccc(Cl)cc1)c1ccccn1.O=C(O)/C=C\\C(=O)O (racemic) [(±)-Chlorpheniramine maleate]", "Result": 0.03007}
{"Compound": "C#C[C@]1(O)CC[C@H]2[C@@H]3CCC4=Cc5nc6nc7ccccc7n6cc5C[C@]4(C)[C@H]3CC[C@@]21C [WIN 62,577]", "Result": 1.289}
{"Compound": "O=c1onc2n1-c1cc(Br)ccc1OC2 [NS 2028]", "Result": 4.476}

Please state, for each entry, its recorded mean.
1. O=C(O)CN(CCOCCOCCN(CC(=O)O)CC(=O)O)CC(=O)O
2. CCCN(CCC)C(=O)Cc1c(-c2ccc(Cl)cc2)nc2c(Cl)cc(Cl)cn12 [CB34]
3. N[C@@H]1C[C@H]1c1ccccc1 [Tranylcypromine hydrochloride]
4. CC1CCN=C(N)S1.Cl (racemic) [(±)-AMT hydrochloride]
5. COc1ccc2cc([C@H](C)C(=O)[O-])ccc2c1.[Na+] [(-)-Naproxen sodium]
6. Cn1c(=O)c2[nH]cnc2n(C)c1=O.Cn1c(=O)c2[nH]cnc2n(C)c1=O.NCCN [Aminophylline ethylenediamine]

// result
1. 2.456
2. 2.2145
3. 0.6865
4. 2.212
5. 0.4756
6. 0.04927

====

Target: SARS-CoV-2 3CLpro (Severe acute respiratory syndrome coronavirus 2, UniProt P0DTD1)
Assay: biochemical
Type: biochemical
Parameters: unit not given here
Conditions: LOPAC1280 primary screen with protease, 5 µM compound, mean of the two replicates
Where a name gives a salt, the structure may show the parent alone.
Result Type: mean (LOPAC_screen_w_protease)
Give bare numbers.

{"Compound": "CC(=O)OCC(=O)[C@@]1(O)CC[C@H]2[C@@H]3CCC4=CC(=O)CC[C@]4(C)[C@H]3C(=O)C[C@@]21C [Cortisone 21-acetate]", "Result Type": "mean (LOPAC_screen_w_protease)", "Quantitative Result": 1.771}
{"Compound": "NCCCCCC(=O)O", "Result Type": "mean (LOPAC_screen_w_protease)", "Quantitative Result": 2.116}
{"Compound": "Cn1c(=O)[nH]c2ncn(C)c2c1=O", "Result Type": "mean (LOPAC_screen_w_protease)", "Quantitative Result": 1.802}

Please state, for each entry, its recorded mean (LOPAC_screen_w_protease).
1. CCC1(C)CC(=O)NC1=O (centres unmarked) [Ethosuximide]
2. O=C[C@H](Cl)[C@@H](O)[C@H](O)[C@H](O)CO
3. Nc1nc(N)c2nc(CNc3ccc(C(=O)N[C@@H](CCC(=O)O)C(=O)O)cc3)cnc2n1
4. NC(C(=O)O)C(O)C(=O)O (racemic) [DL-threo-beta-hydroxyaspartic acid]
5. COc1cc2nc(N3CCN(C(=O)C4COc5ccccc5O4)CC3)nc(N)c2cc1OC (centres unmarked) [Doxazosin mesylate]

// result
1: 1.998; 2: 1.752; 3: 1.819; 4: 2.095; 5: 1.977

====

Consider the following compounds; for each one, report its Replicate_2.
Molecular target: SARS-CoV-2 3CLpro (Severe acute respiratory syndrome coronavirus 2, UniProt P0DTD1)
Experiment: biochemical
Type: biochemical
Set-up: unit not given here
Details: sheet LOPAC_screen_w_protease; primary screen with protease, compound at 5 µM; replicate 2
One number for each entry.

Examples from the recorded data:
{"Compound": "CC(C)NNC(=O)c1ccncc1.O=P(O)(O)O [Iproniazid phosphate]", "Result Type": "Replicate_2", "Quantitative Result": 3.887}
{"Compound": "N[C@H](CCCCCP(=O)(O)O)C(=O)O [D(-)-2-Amino-7-phosphonoheptanoic acid]", "Result Type": "Replicate_2", "Quantitative Result": 2.633}
{"Compound": "CCN1CCc2nc(N)oc2CC1.Cl.Cl [B-HT 933 dihydrochloride]", "Result Type": "Replicate_2", "Quantitative Result": 3.476}

Please state, for each entry, its recorded Replicate_2.
1. COc1c2c(nc3ccccc13)OC(C(C)(O)CO)C2 (stereo not drawn) [Dubinidine]
2. N.N.O=C([O-])C1(C(=O)[O-])CCC1.[Pt+2] [Carboplatin]
3. Cl.NCCC[C@](N)(C(=O)O)C(F)F (racemic)
4. CNC(=O)[C@H]1O[C@@H](n2cnc3c(NCc4ccc(N)cc4)ncnc32)[C@H](O)[C@@H]1O [AB-MECA]
5. C[C@H]1O[C@@H](n2cc(F)c(=O)[nH]c2=O)[C@H](O)[C@@H]1O [5-fluoro-5'-deoxyuridine]

// result
1. 1.026
2. 4.006
3. 2.959
4. 2.266
5. 1.673

// query May I ask what Replicate_2 has been recorded for CCN(CC)c1ncnc2c1ncn2[C@@H]1O[C@H](COP(=O)([O-])OP(=O)([O-])C(Br)(Br)P(=O)([O-])O)[C@@H](O)[C@H]1O.[Na+].[Na+].[Na+] [ARL 67156 trisodium salt] ?
// result 3.094

====

Target: SARS-CoV-2 3CLpro (Severe acute respiratory syndrome coronavirus 2, UniProt P0DTD1)
Experiment: biochemical
Format: biochemical
Parameters: unit not given here
Settings: sheet LOPAC_screen_w_protease; LOPAC1280 at 5 µM; replicate 1
Consider the following compounds; for each one, report its Replicate_1.
One number for each entry.

{"Compound": "CC(=O)[C@H]1CC[C@H]2[C@@H]3CC=C4C[C@@H](OS(=O)(=O)[O-])CC[C@]4(C)[C@H]3CC[C@]12C.[Na+] [Pregnenolone sulfate sodium]", "Replicate_1": 0.04623}
{"Compound": "CNc1cc(NS(=O)(=O)c2ccc(N)cc2)nc(NC)n1.Cl.Cl [Ro 04-6790 dihydrochloride]", "Replicate_1": -0.4861}
{"Compound": "CC(Oc1ccc(Oc2cnc3ccc(Cl)cc3n2)cc1)C(=O)O (stereo not shown) [XK469]", "Replicate_1": 0.4248}
{"Compound": "Cl.NC1CCN(c2cccc(Cl)n2)CC1 [SR 57227A]", "Replicate_1": 1.181}
{"Compound": "C[C@]12CCC(=O)C=C1CC[C@@H]1[C@@H]2[C@@H](O)C[C@@]2(C)[C@H]1CC[C@]2(O)C(=O)COC(=O)CCC(=O)[O-].[Na+] [Hydrocortisone 21-hemisuccinate sodium]", "Replicate_1": 1.635}

Please state, for each entry, its recorded Replicate_1.
1. COc1ccccc1N1CCN(CCN(C(=O)C2CCCCC2)c2ccccn2)CC1.O=C(O)/C=C\C(=O)O [WAY-100635 maleate]
2. CN(C)C(N)=NCCC[C@H](N)C(=O)O.Cl [N^G,N^G-Dimethylarginine hydrochloride]

// result
1: 1.502; 2: 2.142

====

Target: SARS-CoV-2 3CLpro (Severe acute respiratory syndrome coronavirus 2)
Test: biochemical
Assay type: biochemical
Conditions: 4 h, sheet LOPAC_screen_w_protease; primary screen with protease, 5 µM; mean of two replicates; read-out: mean
Counter-ions that a name gives are not always drawn.
Result Type: inhibition at 5 µM (%)
Numbers only, in %.

Examples from the recorded data:
{"Compound": "CC[C@@H]1C(=O)OC[C@@H]1Cc1cncn1C [Pilocarpine nitrate]", "Quantitative Result": -0.33}
{"Compound": "Nc1ccncc1 [4-Aminopyridine]", "Quantitative Result": -0.189}
{"Compound": "Cc1ccc(S(=O)(=O)NC(=O)NN2CCCCCC2)cc1 [Tolazamide]", "Quantitative Result": -0.908}

Please state, for each entry, its recorded inhibition at 5 µM.
1. CN(C)C(=O)Oc1ccc[n+](C)c1 [Pyridostigmine bromide]
2. N=C(N)c1ccc(N)cc1 [4-Aminobenzamidine dihydrochloride]
3. CCCCNc1ccc(C(=O)OCCN(C)C)cc1 [Tetracaine hydrochloride]
4. CCNC(=O)N1CCN(CCCC(c2ccc(F)cc2)c2ccc(F)cc2)CC1 [Amperozide hydrochloride]
5. CCCCNc1c(C(=O)OCC)c(C)nc2c1cnn2CC [Tracazolate]
6. C=CCc1ccccc1OCC(O)CNC(C)C (stereo not drawn) [Alprenolol hydrochloride]

// result
1. 0.333
2. -0.229
3. -0.191
4. 0.1
5. -0.116
6. 0.137

Please state, for each entry, its recorded inhibition at 5 µM.
1. Nc1ccc(S(=O)(=O)Nc2ccnn2-c2ccccc2)cc1 [Sulfaphenazole]
2. CN1CCN(CCCN2c3ccccc3Sc3ccc(C(F)(F)F)cc32)CC1 [Trifluoperazine dihydrochloride]
3. CC(C)C(=O)Nc1ccc([N+](=O)[O-])c(C(F)(F)F)c1 [Flutamide]

// result
0.0259
0.187
0.293
